Record form. Attribute: GI50. Fill in for each entry.
tested on: OVCAR-8 ovarian; assay: NCI tumour cell line growth inhibition, 48 h

Batch lookup, GI50 per entry.
1. CCSc1oc(-c2ccccc2)nc1[P+](c1ccccc1)(c1ccccc1)c1ccccc1
2. COc1ccc(N2CCN(C(=O)c3ccccc3Nc3ccnc(C(F)(F)F)c3)CC2)cc1

1. 275 nM
2. 40700 nM

* * *

tested on: KM20L2 colon; assay: NCI tumour cell line growth inhibition, 48 h
Record form. Attribute: TGI. Fill in for each entry.

Below, 8 compounds whose answers are already recorded.
NCCCCCS(=O)(=O)O ... > 100 µM
CC(C)[C@@H]1C=C(c2ccccc2)c2ccccc2C1C(C#N)(C#N)C(C)C (some centres undefined) ... > 100 µM
COC(=O)C1=C(OC)c2cc3c(cc2C(c2cc(OC)c(OC)c(OC)c2)C1C(=O)OC)OCO3 (centres undefined) ... > 100 µM
c1ccc2c(CNCCCCCCNCc3cccc4ccccc34)cccc2c1 ... 6.74 µM
COC(=O)C(=O)C1(CCC(C)=O)c2ccccc2-c2ccccc21 ... > 100 µM
Cc1ccc(S(=O)(=O)N(/N=C(\N)Oc2ccc(Cl)cc2)C(=N)Oc2ccc(Cl)cc2)cc1 ... > 100 µM
CC(C)(C)N=C1CC(C)(C)c2ccccc2C(=Nc2ccccc2)S1 ... > 100 µM
COC(=O)C[CH](C(=O)OC)[Ge]([CH3])([CH3])[S]c1ccccc1 (centres undefined) ... 67.9 µM

Bench note: what TGI did C/C1=C\[C@H](C)C[C@H](C)OC(=O)C[C@H](c2ccc(O)cc2)NC(=O)[C@@H](Cc2c(Br)[nH]c3ccccc23)N(C)C(=O)[C@H](C)NC(=O)[C@@H](C)C1 show? 10.7 µM

* * *

system: A498 renal; assay: NCI tumour cell line growth inhibition, 48 h
Record form. Attribute: log10(TGI). Fill in for each entry.
// units: µM (pre-log); metric: TGI; scale: log10

O=C(CC(=O)N1N=C(c2ccccc2)C(N=Nc2ccc(C(=O)O)cc2)C1=O)Nc1ccc(F)cc1 (stereo unspecified) ... 1.91
CCN(CC)CCN1C(=O)c2c(c(C)c3c(oc4cc(O)ccc43)c2C)C1=O ... 0.49
CC1(C)CCC[C@]23C(=O)O[C@](O)(C(=O)C4=C[C@@](C)(/C=C/CCCc5ccc6ccc7cccc8ccc5c6c78)CC[C@@]42O)[C@@H]13 ... -0.54
CC1=CC(O)C(O)C2(C)C1CC1OC(=O)C(O)C3C(C)C(O)C4(O)OCC13C42 (stereo unspecified) ... 1.86
O=C(c1ccccc1Nc1ccnc(C(F)(F)F)c1)N1CCN(c2cccc(Cl)c2)CC1 ... 1.67

Batch lookup, log10(TGI) per entry.
1. c1ccc2c(CNCCCCCCNCc3cccc4ccccc34)cccc2c1
2. CN(C)CCCNc1nn2c(=O)c3ccccc3nc2c2ccccc12
3. COc1ccc(SC2c3cc(OC)c(OC)cc3Oc3nc(N)c(C#N)c(N)c32)cc1 (stereo unspecified)
4. CN1/C(=C\C(I)C(I)C2=[N+](C)c3ccccc3C2(C)C)C(C)(C)c2ccccc21 (stereo unspecified)

[1.53, 1.33, 0.45, 0.17]

* * *

test system: NCI-H23 lung; assay: NCI tumour cell line growth inhibition, 48 h
assayMetric: TGI (µM)
Answers are plain numbers, in µM.

Below, 3 compounds whose answers are already recorded.
NC(N)=N/N=C/c1c(-c2ccc([N+](=O)[O-])cc2)nc2sccn12 ... 3.46
CCOC(=O)c1sc(-c2ccc(OS(=O)(=O)c3cccs3)c(C=O)c2)nc1C ... 4.54
CCN(CC)CCO/N=C1\CC[C@H]2[C@@H]3CC=C4C[C@@H](O)CC[C@]4(C)[C@H]3CC[C@]12C ... 33.4

# next compound below
Bench note: what TGI did CCCCCCCCCCCC(=O)OCC1OC(n2cc(F)c(=O)[nH]c2=O)C(NC(=O)OCc2ccccc2)C(O)C1O (centres undefined) show? 93.6
